# TEST_TARGET: T1, KDR (1-3) monomer (UniProt P35968 20-327, limits assumed, biotin-labeled in the ELISA of Example 8)
# T1 construct: domain: domains 1 to 3; Genentech reagent; also called domains 1 to 3 of KDR
# T1 sequence (P35968 20-327 limits assumed): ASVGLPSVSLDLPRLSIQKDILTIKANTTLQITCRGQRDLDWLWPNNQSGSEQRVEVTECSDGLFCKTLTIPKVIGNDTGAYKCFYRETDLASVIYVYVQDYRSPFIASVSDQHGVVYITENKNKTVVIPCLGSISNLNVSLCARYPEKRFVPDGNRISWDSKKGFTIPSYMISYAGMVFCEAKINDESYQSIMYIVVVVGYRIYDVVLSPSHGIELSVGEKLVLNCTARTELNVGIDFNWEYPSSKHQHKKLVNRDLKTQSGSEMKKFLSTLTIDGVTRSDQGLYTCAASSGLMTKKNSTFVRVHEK
# ASSAY_COMMENT: competition ELISA vs biotinylated VEGF (8-109), soluble KDR (1-3) captured by MAKD5
pIC50: −log10 of the molar value.
Each entry below carries its reported pIC50.
QUANTITY_MEASURED: pIC50

[
  {
    "BINDER": "LK-VRB-8s* (ligand) APMAEGGGQNHHEVVKFMDVLQRSYCHPIETLVDIFQEYPDEIEYIFKPSCVPLMRCGGCCNSEMRECVPTEESNITMQIMRIKPHQGQHIGEMSFLQHNKCECRPKKD",
    "QUANTITY_MEASURED": "pIC50",
    "REPORTED_VALUE": 9.30
  },
  {
    "BINDER": "LK-VRB-22s (ligand, human, UniProt P15692-4 27-135, looked up) APMAEGGGQNHHEVVKFEDVLRRSSCHPIETLVDIFQEYPDEIEYIFKPSCVPLMRCGGCCNDEMLECVPTEESNITMQIMRIKPHQGQHIGEMSFLQHNKCECRPKKD",
    "QUANTITY_MEASURED": "pIC50",
    "REPORTED_VALUE": 8.40
  },
  {
    "BINDER": "LK-VRB-12s (ligand, human, UniProt P15692-4 27-135, looked up) APMAEGGGQNHHEVVKFEDVYRRSYCHPIETLVDIFQEYPDEIEYIFKPSCVPLMRCGGCCNSEMRECVPTEESNITMQIMRIKPHQGQHIGEMSFLQHNKCECRPKKD",
    "QUANTITY_MEASURED": "pIC50",
    "REPORTED_VALUE": 9.40
  },
  {
    "BINDER": "LK-VRB-14s (ligand, human, UniProt P15692-4 27-135, looked up) APMAEGGGQNHHEVVKFMDVLRRSYCHPIETLVDIFQEYPDEIEYIFKPSCVPLMRCGGCCNSEMRECVPTEESNITMQIMRIKPHQGQHIGEMSFLQHNKCECRPKKD",
    "QUANTITY_MEASURED": "pIC50",
    "REPORTED_VALUE": 9.30
  },
  {
    "BINDER": "LK-VRB-26s (ligand, human, UniProt P15692-4 27-135, looked up) APMAEGGGQNHHEVVKFEDVLRRSSCHPIETLVDIFQEYPDEIEYIFKPSCVPLMRCGGCCNDEMRECVPTEESNITMQIMRIKPHQGQHIGEMSFLQHNKCECRPKKD",
    "QUANTITY_MEASURED": "pIC50",
    "REPORTED_VALUE": 7.64
  },
  {
    "BINDER": "LK-VRB-6s (ligand, human, UniProt P15692-4 27-135, looked up) APMAEGGGQNHHEVVKFMDVYQRSYCHPIETLVDIFQEYPDEIEYIFKPSCVPLMRCGGCCNSEATECVPTEESNITMQIMRIKPHQGQHIGEMSFLQHNKCECRPKKD",
    "QUANTITY_MEASURED": "pIC50",
    "REPORTED_VALUE": 9.30
  },
  {
    "BINDER": "LK-VRB-4s (ligand, human, UniProt P15692-4 27-135, looked up) APMAEGGGQNHHEVVKIEDVFERSICHPIETLVDIFQEYPDEIEYIFKPSCVPLMRCGGCCNDEGLECVPTEESNITMQIMRIKPHQGQHIGEMSFLQHNKCECRPKKD",
    "QUANTITY_MEASURED": "pIC50",
    "REPORTED_VALUE": 9.00
  },
  {
    "BINDER": "LK-VRB-13s (ligand, human, UniProt P15692-4 27-135, looked up) APMAEGGGQNHHEVVKFEDVYQRSSCHPIETLVDIFQEYPDEIEYIFKPSCVPLMRCGGCCNSEMRECVPTEESNITMQIMRIKPHQGQHIGEMSFLQHNKCECRPKKD",
    "QUANTITY_MEASURED": "pIC50",
    "REPORTED_VALUE": 7.85
  },
  {
    "BINDER": "LK-VRB-23s (ligand, human, UniProt P15692-4 27-135, looked up) APMAEGGGQNHHEVVKFEDVLRRSSCHPIETLVDIFQEYPDEIEYIFKPSCVPLMRCGGCCNDEGRECVPTEESNITMQIMRIKPHQGQHIGEMSFLQHNKCECRPKKD",
    "QUANTITY_MEASURED": "pIC50",
    "REPORTED_VALUE": 7.96
  },
  {
    "BINDER": "LK-VRB-24s (ligand, human, UniProt P15692-4 27-135, looked up) APMAEGGGQNHHEVVKFEDVLRRSSCHPIETLVDIFQEYPDEIEYIFKPSCVPLMRCGGCCNSEMLECVPTEESNITMQIMRIKPHQGQHIGEMSFLQHNKCECRPKKD",
    "QUANTITY_MEASURED": "pIC50",
    "REPORTED_VALUE": 8.00
  },
  {
    "BINDER": "LK-VRB-11s (ligand, human, UniProt P15692-4 27-135, looked up) APMAEGGGQNHHEVVKFEDVLQRSYCHPIETLVDIFQEYPDEIEYIFKPSCVPLMRCGGCCNSEMRECVPTEESNITMQIMRIKPHQGQHIGEMSFLQHNKCECRPKKD",
    "QUANTITY_MEASURED": "pIC50",
    "REPORTED_VALUE": 8.70
  },
  {
    "BINDER": "LK-VRB-1s* (ligand, human, UniProt P15692-4 27-135, looked up) APMAEGGGQNHHEVVKFEDVLRRSSCHPIETLVDIFQEYPDEIEYIFKPSCVPLMRCGGCCNDEGLECVPTEESNITMQIMRIKPHQGQHIGEMSFLQHNKCECRPKKD",
    "QUANTITY_MEASURED": "pIC50",
    "REPORTED_VALUE": 9.00
  },
  {
    "BINDER": "LK-VRB-20s (ligand, human, UniProt P15692-4 27-135, looked up) APMAEGGGQNHHEVVKFMDVLRRSSCHPIETLVDIFQEYPDEIEYIFKPSCVPLMRCGGCCNSEMRECVPTEESNITMQIMRIKPHQGQHIGEMSFLQHNKCECRPKKD",
    "QUANTITY_MEASURED": "pIC50",
    "REPORTED_VALUE": 8.70
  },
  {
    "BINDER": "LK-VRB-5s (ligand, human, UniProt P15692-4 27-135, looked up) APMAEGGGQNHHEVVKFMDVYQRSYCHPIETLVDIFQEYPDEIEYIFKPSCVPLMRCGGCCNSEGRECVPTEESNITMQIMRIKPHQGQHIGEMSFLQHNKCECRPKKD",
    "QUANTITY_MEASURED": "pIC50",
    "REPORTED_VALUE": 9.00
  },
  {
    "BINDER": "LK-VRB-7s* (ligand, human, UniProt P15692-4 27-135, looked up) APMAEGGGQNHHEVVKFEDVYQRSYCHPIETLVDIFQEYPDEIEYIFKPSCVPLMRCGGCCNSEMRECVPTEESNITMQIMRIKPHQGQHIGEMSFLQHNKCECRPKKD",
    "QUANTITY_MEASURED": "pIC50",
    "REPORTED_VALUE": 9.00
  },
  {
    "BINDER": "LK-VRB-3s (ligand, human, UniProt P15692-4 27-135, looked up) APMAEGGGQNHHEVVKIEDVFKRSSCHPIETLVDIFQEYPDEIEYIFKPSCVPLMRCGGCCNDEGLECVPTEESNITMQIMRIKPHQGQHIGEMSFLQHNKCECRPKKD",
    "QUANTITY_MEASURED": "pIC50",
    "REPORTED_VALUE": 9.00
  }
]
